B1: Cytoplasmic polyadenylation element-binding protein 2, residues 513 to 575; numbered along this chain, Q7Z5Q1 (parent)
chain: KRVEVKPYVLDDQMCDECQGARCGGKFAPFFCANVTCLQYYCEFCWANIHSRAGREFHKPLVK

Variants of: B1
Experiment: abundance fitness (aPCA) (normalised: wild type 0, dead -1); higher = more abundant; growth selection in yeast, the domain comes from the species named
Details: Homo sapiens
Assign class by abundance fitness: not lower than -0.5 means class 1; lower than -0.5 means class 0.

Take a look at these entries with their results.
Could you please find out whether F57T has abundance fitness that meets -0.5 or exceeds it?
class 1

Please indicate if the recorded abundance fitness for H50A meets or exceeds -0.5.
class 0

Form field: abundance fitness at least -0.5? Entry: A47K
class 1

Is it the case that A53K has abundance fitness reaching or exceeding -0.5?
class 1

Form field: abundance fitness at least -0.5? Entry: D11S
class 1

Continuing:
Say whether F30I shows abundance fitness of -0.5 or more.
class 1

Confirm if abundance fitness reported for the variant Q39H is -0.5 or above.
class 1

Hello, I need to know if F31P has measured abundance fitness not below -0.5. Thanks!
class 0

Decide: is the reported value of abundance fitness for S51T equal to or greater than -0.5?
class 1

Test whether the variant P7K records abundance fitness of -0.5 or higher.
class 1

abundance fitness >= -0.5 for Y40G ?
class 1

Tell me whether abundance fitness is at least -0.5 here: P60N
class 1

Please check the record R2I and state if its abundance fitness is at or above -0.5.
class 1

Entry A53W : is its abundance fitness no less than -0.5?
class 1

These data points were gathered from the Human Domainome abundance scans (Beltran et al. 2025).
